test-method-notes: InCell qHTS Assay for Inhibitors of the mTORC1 Signaling Pathway in MEF (Tsc2-/-, p53-/-) Cells: Hit Validation;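 note: phospho-S6 Ser235/236 signal normalized to propidium iodide cell count per well; nearly all actives have a fitted effect of over 75% in size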
details: phospho-rpS6 immunofluorescence, 24 h; at 38.3 µM (top of the series)
Inconclusive results are not listed.
Could you please report measured activity change, negative = inhibition for the items listed next?
Numbers only, in %.

Worked set:
{"columns": ["molecule", "output-unit", "measurement"],
 "data": [
  ["CC1CCCCN1c1nnc(NC(=O)Nc2ccccc2F)s1 (stereo unspecified)", "%", -100],
  ["CCOc1ccc(/C=C/c2nc(C#N)c(NCc3ccccc3)o2)cc1", "%", -100],
  ["COC(=O)c1ccc(NC(=O)c2nc(-c3ccc(Cl)cc3)n3c2CCCCC3)cc1", "%", -100],
  ["O=C(Nc1ccc(Cl)c(C(F)(F)F)c1)c1ccc2c(c1)CCN2S(=O)(=O)c1ccccc1", "%", -100],
  ["CCCCNC(=O)c1ccc2c(c1)N=C(CC)c1ccccc1S2", "%", -16],
  ["O=S(=O)(NCC(c1ccco1)N1CCN(c2ccc(F)cc2)CC1)c1ccccc1 (stereo unspecified)", "%", -100],
  ["Nc1c(C(=O)NCc2ccccc2)nnn1Cc1cccc(Br)c1", "%", -100],
  ["Cc1ccc(-c2nc3sccn3c2Nc2ccc(C)c(C)c2)cc1", "%", -100],
  ["CCCCN(C)CCNC(=O)c1cc2c(=O)n(C)c3ccccc3c2n1C", "%", -100],
  ["O=C(NC1CCCCC1)/C(=C/c1ccc(Cl)cc1)NC(=O)c1ccccc1", "%", -22.5]
]}

API: the following record is the query input.
Inquiry: If you can, please state the reported activity change, negative = inhibition value of CCOc1ccccc1Nc1nc(-c2cccc(Cl)c2)c2c(n1)-c1ccccc1OC2 .
Reply text: -100

====

test-method-notes: InCell qHTS Assay for Inhibitors of the mTORC1 Signaling Pathway in MEF (Tsc2-/-, p53-/-) Cells: Hit Validation;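 note: phospho-S6 Ser235/236 signal normalized to propidium iodide cell count per well; nearly all actives have a fitted effect of over 75% in size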
details: phospho-rpS6 immunofluorescence, 24 h; at 38.3 µM (top of the series)
Records with an inconclusive call do not appear.
Could you please report measured activity change, negative = inhibition for the items listed next?
One number for each entry, in %.

Worked set:
{"columns": ["compound", "output-unit", "measurement"],
 "data": [
  ["Cc1cccc(Nc2ncc(NC(=O)c3cccc(F)c3)c(Nc3cccc(C)c3)n2)c1", "%", -100],
  ["CCCCN1C(=O)C(O)(CC(=O)c2ccc(C(C)(C)C)cc2)c2ccccc21 (stereo not given)", "%", -28.2],
  ["Cc1ccc(N(CC(O)Cn2c3ccccc3c3ccccc32)S(=O)(=O)c2ccc(F)cc2)cc1 (stereo not given)", "%", -64.5],
  ["Cc1ccc(-c2nnc(C3CCN(S(=O)(=O)c4ccc(C)c(C)c4)CC3)o2)cc1", "%", -100]
]}

I would be grateful if you could provide activity change, negative = inhibition for each of the following entries.
1. O=C(Nc1ccc(F)c(Cl)c1)c1cc(S(=O)(=O)N2CCCc3ccccc32)ccc1F
2. CCN(CC)Cc1c(NC(=O)c2ccc(OC)cc2)sc2c1CCCC2
3. Cc1ccc(S(=O)(=O)c2nnn3c2nc(NC2CCCCC2)c2sccc23)cc1C

Reply text:
1. -100
2. 1.72
3. -100
